system: Nrf2 transcription factor (Nrf2-ARE); experiment: Nrf2-ARE induction, luciferase activity in AREc32 (MCF7 cells stably transfected with ARE-LUC); format: cell-based; conditions: Homo sapiens, 10 μM, 24 h, basal = 1, read-out: Relative Luciferase activity (response versus basal)
parameter: fold induction at 10 µM
Please state the value as a number alone, without comment.

Worked cases, fold induction at 10 µM given:
| compound | fold induction at 10 µM |
| --- | --- |
| CC(=O)NCCc1c[nH]c2ccc(OC(=O)/C=C/c3ccc(C(F)(F)F)cc3)cc12 | 2.34 |
| C/C=C/C(=O)Oc1ccc2[nH]cc(CCNC(C)=O)c2c1 | 2.34 |
| COc1cccc(/C=C/C(=O)Oc2ccc3[nH]cc(CCNC(C)=O)c3c2)c1 | 1.39 |
| COc1cc(/C=C/C(=O)Oc2ccc3[nH]cc(CCNC(C)=O)c3c2)ccc1O | 1.11 |

IN: Provide measured fold induction at 10 µM on Nrf2 transcription factor (Nrf2-ARE) for `CC(=O)NCCc1c[nH]c2ccc(OC(=O)/C=C/c3ccc(Cl)cc3)cc12` please.
OUT: 1.18

IN: Using Nrf2 transcription factor (Nrf2-ARE) as the test system, report measured fold induction at 10 µM of `CC(=O)NCCc1c[nH]c2ccc(OC(=O)/C=C/c3cccc(C(F)(F)F)c3)cc12` .
OUT: 1.34

IN: Enter measured fold induction at 10 µM, system Nrf2 transcription factor (Nrf2-ARE), for the compound shown: `CC(=O)NCCc1c[nH]c2ccc(OC(=O)/C=C/c3ccc([N+](=O)[O-])cc3)cc12`
OUT: 1.69

IN: Give fold induction at 10 µM only, for `CC(=O)NCCc1c[nH]c2ccc(OC(=O)/C=C/c3ccccc3)cc12` , using Nrf2 transcription factor (Nrf2-ARE) data.
OUT: 1.63

IN: Output reported fold induction at 10 µM of the compound `COc1ccccc1/C=C/C(=O)Oc1ccc2[nH]cc(CCNC(C)=O)c2c1` on Nrf2 transcription factor (Nrf2-ARE).
OUT: 1.67

IN: # return fold induction at 10 µM of `CC(=O)NCCc1c[nH]c2ccc(OC(=O)/C=C/c3ccc(O)cc3)cc12` (system: Nrf2 transcription factor (Nrf2-ARE))
OUT: 0.95

IN: Give fold induction at 10 µM for this entry on Nrf2 transcription factor (Nrf2-ARE): `CC(=O)NCCc1c[nH]c2ccc(OC(=O)/C=C/c3ccc(Br)cc3)cc12`
OUT: 1.53

IN: # lookup: Nrf2 transcription factor (Nrf2-ARE) fold induction at 10 µM, key = `CC(=O)NCCc1c[nH]c2ccc(OC(=O)/C=C/c3ccccc3C(F)(F)F)cc12`
OUT: 1.38

IN: Write down the reported fold induction at 10 µM (system: Nrf2 transcription factor (Nrf2-ARE)) of CCOC(=O)C=Cc1ccccc1 [Ethyl Cinnamate, reference compound]
OUT: 1.46

IN: Please report fold induction at 10 µM with Nrf2 transcription factor (Nrf2-ARE) for item `CC(=O)NCCc1c[nH]c2ccc(OC(=O)/C=C/c3ccc(Cl)c(Cl)c3)cc12` .
OUT: 1.16

IN: Please indicate recorded fold induction at 10 µM of `COc1ccc(/C=C/C(=O)Oc2ccc3[nH]cc(CCNC(C)=O)c3c2)cc1` measured with Nrf2 transcription factor (Nrf2-ARE).
OUT: 2.02

IN: Give fold induction at 10 µM for this entry on Nrf2 transcription factor (Nrf2-ARE): `CC(=O)NCCc1c[nH]c2ccc(OC(=O)/C=C/c3ccc(F)cc3)cc12`
OUT: 1.92

IN: Report the value of fold induction at 10 µM obtained on Nrf2 transcription factor (Nrf2-ARE) for `CC(=O)NCCc1c[nH]c2ccc(OC(=O)/C=C/c3ccc(C)cc3)cc12` .
OUT: 1.26

Origin of values: patent US20180105492A1
